Field: relative viability. Provide a value for each of the compounds that follow.
test system: NCI-H23; experiment: relative viability (nuclei count vs DMSO), 5 days (fraction); higher = more cells survive; details: first compound 0.002 µM
One number for each entry.

I'm hoping you can list relative viability for every compound here, please.
1. CC(=O)O[C@@]12CO[C@@H]1C[C@H](O)[C@@]1(C)C(=O)[C@H](O)C3=C(C)[C@@H](OC(=O)[C@H](O)[C@@H](NC(=O)OC(C)(C)C)c4ccccc4)C[C@@](O)([C@@H](OC(=O)c4ccccc4)[C@H]21)C3(C)C [Docetaxel] + COc1cccc2cc(-c3nc([C@H]4CC[C@H](C(=O)O)CC4)n4ncnc(N)c34)[nH]c12 [OSI-027] (partner 0.5 µM)
2. CC(=O)O[C@@]12CO[C@@H]1C[C@H](O)[C@@]1(C)C(=O)[C@H](O)C3=C(C)[C@@H](OC(=O)[C@H](O)[C@@H](NC(=O)OC(C)(C)C)c4ccccc4)C[C@@](O)([C@@H](OC(=O)c4ccccc4)[C@H]21)C3(C)C [Docetaxel] + C[C@]1(O)C[C@@H](c2nc(-c3ccc4ccc(-c5ccccc5)nc4c3)c3c(N)nccn32)C1 [Linsitinib] (partner 1 µM)
3. CC(=O)O[C@@]12CO[C@@H]1C[C@H](O)[C@@]1(C)C(=O)[C@H](O)C3=C(C)[C@@H](OC(=O)[C@H](O)[C@@H](NC(=O)OC(C)(C)C)c4ccccc4)C[C@@](O)([C@@H](OC(=O)c4ccccc4)[C@H]21)C3(C)C [Docetaxel] + COc1cc2c(Oc3ccc(NC(=O)C4(C(=O)Nc5ccc(F)cc5)CC4)cc3F)ccnc2cc1OCCCN1CCOCC1 [Foretinib] (partner 0.25 µM)
4. CC(=O)O[C@@]12CO[C@@H]1C[C@H](O)[C@@]1(C)C(=O)[C@H](O)C3=C(C)[C@@H](OC(=O)[C@H](O)[C@@H](NC(=O)OC(C)(C)C)c4ccccc4)C[C@@](O)([C@@H](OC(=O)c4ccccc4)[C@H]21)C3(C)C [Docetaxel] + CC(C)C[C@H](NC(=O)[C@H](Cc1ccccc1)NC(=O)c1cnccn1)B(O)O [Bortezomib] (partner 0.002 µM)

Response:
0.238
0.465
0.705
0.399

====

test system: LCLC-97TM1; test: relative viability (nuclei count vs DMSO), 5 days (fraction); higher = more cells survive; conditions: first compound 0.01581 µM
endpoint: relative viability

molecule | target.of.assay | endpoint | assay.value
Nc1ccn([C@@H]2O[C@H](CO)[C@@H](O)[C@@H]2O)c(=O)n1 [Cytarabine] + O=C(c1cc(Cc2n[nH]c(=O)c3ccccc23)ccc1F)N1CCN(C(=O)C2CC2)CC1 [Olaparib] (partner 8 µM) | LCLC-97TM1 | relative viability | 0.333
COc1cc2nccc(Oc3ccc(NC(=O)Nc4cc(C)on4)c(Cl)c3)c2cc1OC [Tivozanib] + O=C(c1cc(Cc2n[nH]c(=O)c3ccccc23)ccc1F)N1CCN(C(=O)C2CC2)CC1 [Olaparib] (partner 8 µM) | LCLC-97TM1 | relative viability | 0.34
COc1cc2nccc(Oc3ccc(NC(=O)Nc4cc(C)on4)c(Cl)c3)c2cc1OC [Tivozanib] + CCNC(=O)c1noc(-c2cc(C(C)C)c(O)cc2O)c1-c1ccc(CN2CCOCC2)cc1 [Luminespib] (partner 0.01 µM) | LCLC-97TM1 | relative viability | 0.849

As a next step, examine the molecule that follows.
Query: Annotate the molecule COc1cc2nccc(Oc3ccc(NC(=O)Nc4cc(C)on4)c(Cl)c3)c2cc1OC [Tivozanib] + CS(=O)(=O)N1CCN(Cc2cc3nc(-c4cccc5[nH]ncc45)nc(N4CCOCC4)c3s2)CC1 [Pictilisib] (partner 1 µM) with its measured relative viability.
Response: 0.23

====

system: LXF-289; assay: relative viability (nuclei count vs DMSO), 5 days (fraction); higher = more cells survive; settings: first compound 4 µM
Kindly supply the reported relative viability values for the records listed here.
One number for each entry.

compound | target.of.assay | relative viability
Cc1sc2c(c1C)C(c1ccc(Cl)cc1)=N[C@@H](CC(=O)OC(C)(C)C)c1nnc(C)n1-2 [JQ1] + C[C@]1(O)C[C@@H](c2nc(-c3ccc4ccc(-c5ccccc5)nc4c3)c3c(N)nccn32)C1 [Linsitinib] (partner 1 µM) | LXF-289 | 0.34

Items follow; give relative viability for each.
1. Cc1sc2c(c1C)C(c1ccc(Cl)cc1)=N[C@@H](CC(=O)OC(C)(C)C)c1nnc(C)n1-2 [JQ1] + CC(C)C[C@H](NC(=O)[C@H](Cc1ccccc1)NC(=O)c1cnccn1)B(O)O [Bortezomib] (partner 0.002 µM)
2. Cc1sc2c(c1C)C(c1ccc(Cl)cc1)=N[C@@H](CC(=O)OC(C)(C)C)c1nnc(C)n1-2 [JQ1] + COc1cccc2cc(-c3nc([C@H]4CC[C@H](C(=O)O)CC4)n4ncnc(N)c34)[nH]c12 [OSI-027] (partner 0.5 µM)
3. Cc1sc2c(c1C)C(c1ccc(Cl)cc1)=N[C@@H](CC(=O)OC(C)(C)C)c1nnc(C)n1-2 [JQ1] + CC1(C)CCC(c2ccc(Cl)cc2)=C(CN2CCN(c3ccc(C(=O)NS(=O)(=O)c4ccc(N[C@H](CCN5CCOCC5)CSc5ccccc5)c(S(=O)(=O)C(F)(F)F)c4)cc3)CC2)C1 [Navitoclax] (partner 0.5 µM)

Response:
[0.719, 0.173, 0.29]

====

tested on: H3255; assay: relative viability (nuclei count vs DMSO), 5 days (fraction); higher = more cells survive; conditions: first compound 5 µM
endpoint: relative viability
Numbers only.

Reference set (2 entries):
compound | endpoint | assay.value
O=C(O)CCCCC(CCSCc1ccccc1)SCc1ccccc1 (stereo not drawn) [CPI-613] + N=C(N)NC(=N)NCCc1ccccc1 [Phenformin] (partner 250 µM) | relative viability | 0.351
O=C(O)CCCCC(CCSCc1ccccc1)SCc1ccccc1 (stereo not drawn) [CPI-613] + C[C@]1(O)C[C@@H](c2nc(-c3ccc4ccc(-c5ccccc5)nc4c3)c3c(N)nccn32)C1 [Linsitinib] (partner 1 µM) | relative viability | 0.915

Now consider the entry below.
Query: Note relative viability for the compound shown: O=C(O)CCCCC(CCSCc1ccccc1)SCc1ccccc1 (stereo not drawn) [CPI-613] + COc1cc2c(Oc3ccc(NC(=O)C4(C(=O)Nc5ccc(F)cc5)CC4)cc3F)ccnc2cc1OCCCN1CCOCC1 [Foretinib] (partner 0.25 µM)
Response: 0.887

====

test system: SK-MES-1; test: relative viability (nuclei count vs DMSO), 5 days (fraction); higher = more cells survive; settings: first compound 0.1265 µM
Lab note: anything with relative viability below 0.6 is marked rule met; values at 0.6 or higher are marked rule not met.

Check out these entries, answers already filled in.
compound | classification
Cc1sc2c(c1C)C(c1ccc(Cl)cc1)=N[C@@H](CC(=O)OC(C)(C)C)c1nnc(C)n1-2 [JQ1] + N=C(N)NC(=N)NCCc1ccccc1 [Phenformin] (partner 250 µM) | rule met
Cc1sc2c(c1C)C(c1ccc(Cl)cc1)=N[C@@H](CC(=O)OC(C)(C)C)c1nnc(C)n1-2 [JQ1] + C[C@]1(O)C[C@@H](c2nc(-c3ccc4ccc(-c5ccccc5)nc4c3)c3c(N)nccn32)C1 [Linsitinib] (partner 1 µM) | rule not met
Cc1sc2c(c1C)C(c1ccc(Cl)cc1)=N[C@@H](CC(=O)OC(C)(C)C)c1nnc(C)n1-2 [JQ1] + C[C@@H](Oc1cc(-c2cnn(C3CCNCC3)c2)cnc1N)c1c(Cl)ccc(F)c1Cl [Crizotinib] (partner 1 µM) | rule not met
Cc1sc2c(c1C)C(c1ccc(Cl)cc1)=N[C@@H](CC(=O)OC(C)(C)C)c1nnc(C)n1-2 [JQ1] + CS(=O)(=O)N1CCN(Cc2cc3nc(-c4cccc5[nH]ncc45)nc(N4CCOCC4)c3s2)CC1 [Pictilisib] (partner 1 µM) | rule met

Okay, now this compound:
Query: is_below(relative viability, 0.6) for Cc1sc2c(c1C)C(c1ccc(Cl)cc1)=N[C@@H](CC(=O)OC(C)(C)C)c1nnc(C)n1-2 [JQ1] + CCNC(=O)c1noc(-c2cc(C(C)C)c(O)cc2O)c1-c1ccc(CN2CCOCC2)cc1 [Luminespib] (partner 0.01 µM) ?
Response: rule met

====

I'd appreciate it if you could supply relative viability values for the items below.
tested on: EBC-1; assay: relative viability (nuclei count vs DMSO), 5 days (fraction); higher = more cells survive; settings: first compound 5 µM
One number for each entry.

Known results for compounds:
compound | relative viability
O=C(O)CCCCC(CCSCc1ccccc1)SCc1ccccc1 (centres undefined) [CPI-613] + CC1(C)CCC(c2ccc(Cl)cc2)=C(CN2CCN(c3ccc(C(=O)NS(=O)(=O)c4ccc(N[C@H](CCN5CCOCC5)CSc5ccccc5)c(S(=O)(=O)C(F)(F)F)c4)cc3)CC2)C1 [Navitoclax] (partner 0.5 µM) | 0.373
O=C(O)CCCCC(CCSCc1ccccc1)SCc1ccccc1 (centres undefined) [CPI-613] + C[C@@H](Oc1cc(-c2cnn(C3CCNCC3)c2)cnc1N)c1c(Cl)ccc(F)c1Cl [Crizotinib] (partner 1 µM) | 0.179
O=C(O)CCCCC(CCSCc1ccccc1)SCc1ccccc1 (centres undefined) [CPI-613] + COc1cc2c(Oc3ccc(NC(=O)C4(C(=O)Nc5ccc(F)cc5)CC4)cc3F)ccnc2cc1OCCCN1CCOCC1 [Foretinib] (partner 0.25 µM) | 0.0958

Query: Output relative viability of O=C(O)CCCCC(CCSCc1ccccc1)SCc1ccccc1 (centres undefined) [CPI-613] + CC(C)C[C@H](NC(=O)[C@H](Cc1ccccc1)NC(=O)c1cnccn1)B(O)O [Bortezomib] (partner 0.002 µM)
Response: 0.576
